- Test system: A549/ATCC NSCLC
- experiment: NCI-60 one-dose screen, 48 h (100 = growth as untreated, 0 = no growth, -100 = all killed)
- settings: 10 µM unless noted
This is part of a sample that, as a whole, favours compounds with a hit. Of some 83,000 tested, about 20% had one in any assay.
# class assignment by measured growth: low (below 60%), medium (60% to below 90%), high (90% or more)

# molecule, label.value
data = [
    ("CCC1CCc2nc3sc(C(=O)Nc4ccccc4F)c(N)c3cc2C1 (stereo not given)", "medium"),
    ("O=C1Nc2cc(Cl)ccc2Oc2cc(Oc3ccccc3)ccc21", "medium"),
    ("Nc1cccc2c1CN(C1CCC(=O)NC1=O)C2=O (stereo not given)", "high"),
    ("COC(=O)c1cc(-c2cccs2)c(C#N)c(N)c1C#N", "high"),
    ("COc1ccc(/C=C/C(=O)c2ccc(B(O)O)cc2)cc1O", "medium"),
]

Prompt: Which growth band matches c1ccc2nc(-c3ccc4ccccc4n3)ccc2c1 ?
Completion: high

Prompt: Which growth band matches CCOC(=O)/C=C\C(=O)NC(N)=O ?
Completion: medium

Prompt: Which growth band matches O=c1c2cccc3c(Nc4ccc(F)cc4)ccc(c32)c2nc3ccccc3n12 ?
Completion: high

Prompt: Which growth band matches N#CC1=C(N)OC2=C(C(=O)CCC2)C1c1ccco1 (stereo not given) ?
Completion: high

Prompt: Which growth band matches Nc1c(C(=O)Nc2cccc([N+](=O)[O-])c2)sc2nc3c(cc12)C(O)CCC3 (stereo not given) ?
Completion: low

Prompt: Which growth band matches CCN(CC)CCCC(C)N=c1cc(Nc2cc(=NC(C)CCCN(CC)CC)c3cc(OC)ccc3o2)oc2ccc(OC)cc12 (stereo not given) ?
Completion: low

Prompt: Which growth band matches COc1ccc(-c2cn[nH]c2-c2cc(OC)c3c(c2)OCCO3)cc1 ?
Completion: low
